assay: In vitro metabolism (metabolic stability) in human liver microsomes; conditions: human, liver microsomes, pH 7.4, Mean CLint, control compounds; mean (S.D.)
assay readout: microsomal CLint at 1 µM (µL/min/mg)

compound="COc1ccc2[nH]c([S+]([O-])Cc3ncc(C)c(OC)c3C)nc2c1 (stereo not shown)" number=24.2

---

biological target: CYP3A4 (Homo sapiens, UniProt P08684); assay: Cytochrome P450 inhibition in human liver microsomes; settings: human, microsomes, pH 7.4, CYP3A4 (test) % inhibition at max conc, human liver microsomes; CYP3A4 (test); at max conc; nmi = no measurable inhibition
Sequence (P08684 whole entry): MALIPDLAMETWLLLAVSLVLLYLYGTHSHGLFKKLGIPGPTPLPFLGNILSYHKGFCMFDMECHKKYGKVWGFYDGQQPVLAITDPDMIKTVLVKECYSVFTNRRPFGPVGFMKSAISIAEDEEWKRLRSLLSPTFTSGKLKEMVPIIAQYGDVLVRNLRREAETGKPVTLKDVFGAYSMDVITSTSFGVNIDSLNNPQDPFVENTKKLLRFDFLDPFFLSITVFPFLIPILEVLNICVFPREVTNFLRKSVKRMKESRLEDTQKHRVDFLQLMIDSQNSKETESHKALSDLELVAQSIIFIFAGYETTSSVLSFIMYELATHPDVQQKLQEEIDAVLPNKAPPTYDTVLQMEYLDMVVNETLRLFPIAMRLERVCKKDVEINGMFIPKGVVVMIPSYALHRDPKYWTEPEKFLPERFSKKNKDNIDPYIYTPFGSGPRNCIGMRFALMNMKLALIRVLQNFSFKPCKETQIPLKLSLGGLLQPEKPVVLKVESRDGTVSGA
assay readout: inhibition at 20 µM (%)

compound="CCCCN(CCCC)CCC(O)c1cc2c(Cl)cc(Cl)cc2c2cc(C(F)(F)F)ccc12 (stereo not shown)" assay_readout="inhibition at 20 µM" number=19

Where do these numbers come from? They come from paper PMC6941357.
